- measured-on: human ALK5 (kinase domain, ALK5 T204D) (Homo sapiens, UniProt P36897, T204D)
- Construct: The kinase domain of human ALK5 (amino acids 200-503)
- Sequence (P36897 200-503 T204D): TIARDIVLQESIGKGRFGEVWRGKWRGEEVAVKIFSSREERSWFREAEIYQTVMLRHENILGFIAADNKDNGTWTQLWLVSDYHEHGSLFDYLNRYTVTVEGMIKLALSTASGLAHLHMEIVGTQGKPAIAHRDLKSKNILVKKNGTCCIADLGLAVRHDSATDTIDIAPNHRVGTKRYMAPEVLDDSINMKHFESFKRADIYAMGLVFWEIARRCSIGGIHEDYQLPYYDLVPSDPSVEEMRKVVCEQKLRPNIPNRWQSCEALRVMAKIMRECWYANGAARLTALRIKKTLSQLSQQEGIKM
- measurement-protocol: ALK5 kinase assay ([33P] phosphate incorporation into casein)
- experimental-conditions: casein substrate, 1 μM unlabelled ATP
pIC50: −log10 of the molar value.
Could you label it MET if measured pIC50 is 8 or higher, and NOT MET otherwise?

# example entries with known answers
Cc1cccc(-c2cc(-c3cncc(-c4ccc(C(C)(C)N)cc4)c3)c3cc[nH]c3n2)n1; MET
Cc1cccc(-c2cc(-c3cncc(C#CCN4CCOCC4)c3)c3cc[nH]c3n2)n1; NOT MET
Cc1cccc(-c2cc(-c3cncc(-c4ccc(CN5CC[C@@H](N(C)C)C5)cc4)c3)c3cc[nH]c3n2)n1; MET
Cc1cccc(-c2nc(-c3cncc(-c4ccc(F)cc4)c3)c3cc[nH]c3n2)n1; NOT MET
Cc1cccc(-c2nc(-c3cncc(C4=CCCCC4)c3)c3cc[nH]c3n2)n1; NOT MET

Ask: Determine whether this compound has pIC50 no lower than 8: `Cc1cccc(-c2nc(-c3cncc(Br)c3)c3cc[nH]c3n2)n1`
Result: NOT MET

Ask: Please indicate if the recorded pIC50 for `Cc1cccc(-c2nc(-c3cncc(NC(=O)CCCN(C)C)c3)c3cc[nH]c3n2)n1` meets or exceeds 8.
Result: NOT MET

Ask: API: above_or_equal(metric=pIC50, cutoff=8) for item `Cc1cccc(-c2nc(-c3cncc(-c4ccc5c(c4)CNCC5)c3)c3cc[nH]c3n2)n1`
Result: MET

Ask: # bool: pIC50 of `Cc1cccc(-c2cc(-c3cncc(C#CCN4CCC(F)(F)C4)c3)c3cc[nH]c3n2)n1` >= 8
Result: NOT MET

Ask: Form field: pIC50 at least 8? Entry: `Cc1cccc(-c2nc(-c3cncc(NC(=O)CCN)c3)c3cc[nH]c3n2)n1`
Result: NOT MET

Ask: Does the compound `Cc1cccc(-c2cc(-c3cncc(-c4cccc(CO)c4)c3)c3cc[nH]c3n2)n1` have recorded pIC50 that is 8 or more?
Result: NOT MET

Ask: Does the reported pIC50 for `Cc1cccc(-c2nc(-c3cncc(-c4cccnc4)c3)c3cc[nH]c3n2)n1` fall at or above the 8 mark?
Result: NOT MET

Ask: pIC50 >= 8 for `COc1ccc(-c2cncc(-c3nc(-c4cccc(C)n4)nc4[nH]ccc34)c2)cc1` ?
Result: NOT MET
